Experimental Target: UniProt:G5EF15
Sequence (G5EF15 whole entry, the tested form may be a part): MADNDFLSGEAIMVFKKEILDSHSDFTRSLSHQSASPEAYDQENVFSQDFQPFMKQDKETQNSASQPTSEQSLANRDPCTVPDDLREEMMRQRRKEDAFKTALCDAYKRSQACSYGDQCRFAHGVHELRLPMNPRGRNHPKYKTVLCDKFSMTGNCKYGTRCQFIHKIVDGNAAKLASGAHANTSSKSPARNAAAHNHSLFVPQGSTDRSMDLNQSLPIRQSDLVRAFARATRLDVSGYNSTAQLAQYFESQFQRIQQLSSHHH
Test Summary: inhibitors of POS-1/mex-3 RNA binding, dose response, biochemical, fluorescence polarization (AID 1964);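 note: purified POS-1 fused to maltose binding protein made in E. coli; potency of compounds blocking POS-1 binding to fluorescent RNA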
The source made the active and inactive calls. Cut-off read from the data, not from the text of the source: actives have a measured EC50 and inactives only a lower limit.
Measured Property: EC50

q: Find EC50 (UniProt:G5EF15) for the entry "Cc1ccc(Cl)c2c(N=Nc3ccccc3)c(O)[nH]c12"
a: 18.6 µM (active)

q: Find EC50 (UniProt:G5EF15) for the entry "CC/C(=C\C=C\[C@@H]1C=C[C@@H]2CCC[C@H]2[C@@H]1C(=O)c1ccc[nH]1)[C@@H]1O[C@@H]([C@@H](C)C(=O)O)CC[C@@H]1C"
a: > 300 µM (inconclusive)

q: Find EC50 (UniProt:G5EF15) for the entry O=C(NCc1ccccc1)C1Nc2ccc(OC(F)(F)F)cc2C2C=CCC12 (centres undefined)
a: > 300 µM (not active)

q: Find EC50 (UniProt:G5EF15) for the entry "CCOC(=O)c1nn(-c2ccc(C)cc2)c2nc(Nc3ccccc3)cc(=O)n12"
a: 78.2 µM (active)

q: Find EC50 (UniProt:G5EF15) for the entry "Cc1nnc(S/C(=C/c2ccc(-c3cc(Cl)ccc3C)o2)C(=O)O)[nH]1"
a: 38.4 µM (active)

q: Find EC50 (UniProt:G5EF15) for the entry "O=C1NC(=S)/C(=C\c2ccc(-c3ccccc3Cl)o2)S1"
a: > 300 µM (not active)

q: Find EC50 (UniProt:G5EF15) for the entry "CN1CCc2c(sc(NC(=O)c3ccc4ccccc4c3)c2C(N)=O)C1"
a: > 300 µM (not active)

q: Find EC50 (UniProt:G5EF15) for the entry "O=c1cc(-c2ccc(O)c(O)c2)oc2cc(O)cc(O)c12"
a: 60.4 µM (active)

q: Find EC50 (UniProt:G5EF15) for the entry "Cc1cc(C)cc(N2C(=O)NC(=O)/C(=C\c3cccn3-c3ccc(Cl)cc3)C2=O)c1"
a: 84.5 µM (active)

q: Find EC50 (UniProt:G5EF15) for the entry "COC(=O)C1=C(C)N(c2ccccc2)/C(=C/c2ccco2)C1=O"
a: 99 µM (active)

q: Find EC50 (UniProt:G5EF15) for the entry "Cc1c(C(=O)O)cccc1-n1c(C)cc(/C=N/NC(=O)c2cc3ccccc3o2)c1C"
a: > 300 µM (not active)

q: Find EC50 (UniProt:G5EF15) for the entry CC1=CC(C)(C)N2C(=O)C3(C(C#N)=C(N)OC4=C3C(=O)CC(C)(C)C4)c3cccc1c32 (centres undefined)
a: > 300 µM (not active)

q: Find EC50 (UniProt:G5EF15) for the entry "CN1C(=O)/C(=C/c2ccc(N3CCCCCC3)o2)C(=O)NC1=S"
a: > 300 µM (not active)

q: Find EC50 (UniProt:G5EF15) for the entry "CN(C)c1ccc(N/C=C2/C(=O)NC(=O)N(CCC3=CCCCC3)C2=O)cc1"
a: > 300 µM (not active)
